CONDITION_CONTEXT: Ebola virus entry assay, green fluorescence channel
Results with a measured potency or affinity are listed apart.

>  <COMPOUND>
CCN1CCCC1CN (stereo unspecified)

>  <UNITS_LABEL>
%

>  <efficacy>
-12.7

$$$$
>  <COMPOUND>
CN1C(=O)CCS(=O)(=O)C1c1ccc(Cl)cc1 (stereo unspecified)

>  <UNITS_LABEL>
%

>  <efficacy>
19.9

$$$$
>  <COMPOUND>
O=C(O)[C@@H]1[C@H]2C[C@H]3c4[nH]c5ccccc5c4CCN3C[C@@H]2CC[C@@H]1O

>  <UNITS_LABEL>
%

>  <efficacy>
38.8

$$$$
>  <COMPOUND>
COc1ccc(NS(=O)(=O)c2ccc(N)cc2)nn1

>  <UNITS_LABEL>
%

>  <efficacy>
8.59

$$$$
>  <COMPOUND>
CC(C)(C)NCC(O)COc1cccc2c1C[C@H](O)[C@H](O)C2 (stereo partly specified)

>  <UNITS_LABEL>
%

>  <efficacy>
21.3

$$$$
>  <COMPOUND>
Nc1ccc(C(=O)O)cc1

>  <UNITS_LABEL>
%

>  <efficacy>
-10.9

$$$$

---

ASSAY_INFO: Cytotoxicity counterscreen for inhibitors of SARS-CoV-2 cell entry (AID 1645845); further: nearly all actives have a fitted effect of over 50% in size
CONDITION_CONTEXT: cell viability (SARS-CoV-2 entry assay cells); series mostly up to 57.1 µM
Inconclusive results are not listed. Activity calls are given as the source filed them. The call rests on the fitted dose curve.

>  <COMPOUND>
CC(C)(Sc1cc(C(C)(C)C)c(O)c(C(C)(C)C)c1)Sc1cc(C(C)(C)C)c(O)c(C(C)(C)C)c1

>  <outcome>
inactive

$$$$
>  <COMPOUND>
Nc1nc(N)nc(-c2cc(Cl)ccc2Cl)n1

>  <outcome>
inactive

$$$$
>  <COMPOUND>
CC(=O)OCC[N+](C)(C)C

>  <outcome>
inactive

$$$$
>  <COMPOUND>
NC(=O)NC1NC(=O)NC1=O (stereo unspecified)

>  <outcome>
inactive

$$$$
>  <COMPOUND>
CCCCCCCN(CC)CCCC(O)c1ccc(NS(C)(=O)=O)cc1 (stereo unspecified)

>  <outcome>
inactive

$$$$
>  <COMPOUND>
CCCCCCCCCCCCOCCO

>  <outcome>
inactive

$$$$
>  <COMPOUND>
OC[C@H]1O[C@@H](n2cnc3c2NC=NC[C@H]3O)C[C@@H]1O

>  <outcome>
inactive

$$$$
>  <COMPOUND>
CCN(CC)C(C)CN1c2ccccc2Sc2ccccc21 (stereo unspecified)

>  <outcome>
inactive

$$$$
>  <COMPOUND>
CCCCCCCCCCCCCCCC(=O)OCCC1CCN(CCCN2c3ccccc3Sc3ccc(S(=O)(=O)N(C)C)cc32)CC1

>  <outcome>
inactive

$$$$
>  <COMPOUND>
NS(=O)(=O)c1cc2c(cc1C(F)(F)F)NC(Cc1ccccc1)NS2(=O)=O (stereo unspecified)

>  <outcome>
inactive

$$$$
>  <COMPOUND>
Cc1ccccc1N1CCN(CCc2nnc3n2CCCC3)CC1

>  <outcome>
inactive

$$$$

---

Tested on: CP203
ASSAY_INFO: qHTS profiling for inhibitors of Plasmodium falciparum proliferation (AID 504749); further: nearly all actives have a fitted effect of over 60% in size
CONDITION_CONTEXT: P. falciparum in erythrocytes, SYBR Green DNA, 72 h; series mostly up to 28.7 µM
Inconclusive results are not listed. Calls of active or inactive are those of the source. Calls come from the whole dose curve; as a rule, active = well fitted inhibition curve with a large enough effect; inconclusive = small, poorly fitted or top-dose-only effect; inactive = flat fitted curve, though single readings scatter.
Labels: True = active, False = inactive

>  <COMPOUND>
CCCC(C)(COC(N)=O)COC(N)=O

>  <LABEL_VALUE>
False

$$$$
>  <COMPOUND>
O=c1[nH]oc2c1CCNC2

>  <LABEL_VALUE>
False

$$$$
>  <COMPOUND>
O=C1c2ccccc2C(=O)c2ccccc21

>  <LABEL_VALUE>
False

$$$$
>  <COMPOUND>
CN1CCC(O)(c2ccc(F)cc2)C(C(=O)c2ccc(F)cc2)C1 (configuration not stated)

>  <LABEL_VALUE>
False

$$$$
>  <COMPOUND>
COC1CC(=C(c2cccs2)c2cccs2)C[N+](C)(C)C1 (configuration not stated)

>  <LABEL_VALUE>
True

$$$$
>  <COMPOUND>
Oc1ccc(Cl)cc1

>  <LABEL_VALUE>
False

$$$$
>  <COMPOUND>
Clc1cccc(SC2CCNCC2)n1

>  <LABEL_VALUE>
False

$$$$
>  <COMPOUND>
CN1C(=O)C(O)N=C(c2ccccc2)c2cc(Cl)ccc21 (configuration not stated)

>  <LABEL_VALUE>
False

$$$$
>  <COMPOUND>
Cc1ncsc1CCCl

>  <LABEL_VALUE>
False

$$$$
>  <COMPOUND>
O=C1OC(c2ccc(O)c(S(=O)(=O)O)c2)(c2ccc(O)c(S(=O)(=O)O)c2)c2c(Br)c(Br)c(Br)c(Br)c21

>  <LABEL_VALUE>
False

$$$$
>  <COMPOUND>
C=CCN1C[C@H](C)N([C@H](c2ccc(C(=O)N(CC)CC)cc2)c2cccc(OC)c2)C[C@H]1C

>  <LABEL_VALUE>
False

$$$$
>  <COMPOUND>
Cc1nnc2n1-c1ccc(Cl)cc1C(c1ccccc1)=NC2

>  <LABEL_VALUE>
False

$$$$
